- Tested on: VchCAST RNA-guided transposition machinery (E. coli BL21(DE3) host, lacZ target)
- method_description: relative integration efficiency (T-RL orientation) vs wild-type transposon end (log2 (normalized fold change)); transposon end mutated: right end (5 bp flank + 75 bp right end); higher = more efficient transposition
Returns one of t or f; t when relative integration efficiency (log2) is >= -2.

item_sequence | label
ACATTTGTTGATACAACCATAAAATGATAATTACACCCTAAAATTGATAATTATCACACCCATAAATTGATATTGCCTCTGATCATAGTCAGACCAACATTGCTACGACCCGTATTCGCACCGACAC | t
ACATTTGTTGATACAACCCGCCAATGATAATTACACCCATAAATTGATAATTATCACACCCATAAATTGATATTGCCTCTGATCATAGTCAGACCAACATTGCTACGACCCGTATTCGCACCGACAC | f
ACATTTCTGGATACAACCATAAAATGATAATTACACCCATAAATGGATAATTATCACACCCAATTTAACTATAACGCTCTGATCATAGTCAGACCAACATTGCTACGACCCGTATTCGCACCGACAC | f
ACATTTGTTGATACAACCATAAAATGATAATTACAACCATATATTGATATCTCTCACAACCATATATTGATATCTCCTCTGATCATAGTCAGACCAACATTGCTACGACCCGTATTCGCACCGACAC | t
ACATTTGTTGATACAACCATAAAATCATAATTCACCCATAAATTGATAATTATCACACCCACATTTAACTATAACGCTCTGATCATAGTCAGACCAACATTGCTACGACCCGTATTCGCACCGACAC | f
ACATTTGTTGATACAACCATAAAATGAATTAATCACCCATAAATTGAATTAATTCACACCCATAAATTGAATAACGCTCTGATCATAGTCAGACCAACATTGCTACGACCCGTATTCGCACCGACAC | f
ACATTTGTTGATACAACCATATATTGATATCTCCAACCATAAGTTGATATTTTTCACACCCATAAATTGATAATTACTCTGATCATAGTCAGACCAACATTGCTACGACCCGTATTCGCACCGACAC | t
ACATTTGTTGATAAAACCATACGTTGATTTTACGAAACCATACGCTGAAATAATCACACCCATAAATTGATATTGCCTCTGATCATAGTCAGACCAACATTGCTACGACCCGTATTCGCACCGACAC | f
ACATTTGTTGATACAACCATAAAATGATAATTACACCCATAAATTGATAATTATGTGTCCCATAAATTGATATTGCCTCTGATCATAGTCAGACCAACATTGCTACGACCCGTATTCGCACCGACAC | t
ACATTGGTTGATACAACCATAAAATGATAATTACACCCATAAATTCATCATTATCACACCCAATTTAACTATAACGCTCTGATCATAGTCAGACCAACATTGCTACGACCCGTATTCGCACCGACAC | f
ACATTTGTGGATACAACCATAAAATGATAATTACACCCATAAATTTATTATTATCACACCCAATTTAACTATAACGCTCTGATCATAGTCAGACCAACATTGCTACGACCCGTATTCGCACCGACAC | f
ACATTTGTTGATACAACCATAAAATGATAATTAATAATTATTTATAATCAGCAACTTAACCACAACACCCATAAATTGATAATTATCACACCCATAAATTGATATTGCCTCTGATCATAGTCAGACC | f
ACATTTGTTCATACAACCATAAAATGATAATTACACCCATAAATTCATAATTATCACCCCCAATTTAACTATAACGCTCTGATCATAGTCAGACCAACATTGCTACGACCCGTATTCGCACCGACAC | t
ACATTTGTTGATACACCCATAAATTGATAATTACACCCATAAATTGATATTGCTCAGTGGGTATTTAACTATAACGCTCTGATCATAGTCAGACCAACATTGCTACGACCCGTATTCGCACCGACAC | t
ACATTTGTTGATACAACCATAAAATGATCATTACCCCCATCAATTGATAATTATCCCACCCAATTTAACTATAACGCTCTGATCATAGTCAGACCAACATTGCTACGACCCGTATTCGCACCGACAC | f
ACATTTGAACTTACAACCATAAAATGATAATTACACCCATAAATTGATAATTATCACACCCATAAATTGATATTGCCTCTGATCATAGTCAGACCAACATTGCTACGACCCGTATTCGCACCGACAC | f
ACATTTGTGGATACAACCATAAAATGATAATTACCACCCATAAATTGATAATTATCACACCCATTTAACTATAACGCTCTGATCATAGTCAGACCAACATTGCTACGACCCGTATTCGCACCGACAC | t
ACATTTGTTGATACAACCATAAAATGATAATTACACCCATAAATTGATAATTATCACACGGTAAAATTGATATTGCCTCTGATCATAGTCAGACCAACATTGCTACGACCCGTATTCGCACCGACAC | t
ACATTTGCTGATAGAACCATTTAATGATAATAACACCAATAAAATGATAATTATCACACCCAATTTAACTATAACGCTCTGATCATAGTCAGACCAACATTGCTACGACCCGTATTCGCACCGACAC | f
ACATTTGTTGATACAACCCTAAAATGATAATTACACCCATAAATTGATCATTATCACCCCCAATTTAACTATAACGCTCTGATCATAGTCAGACCAACATTGCTACGACCCGTATTCGCACCGACAC | f
